Test system: HOP-62 NSCLC
Assay: NCI-60 one-dose screen, 48 h
Details: 10 µM unless noted
Procedure: Growth inhibition of the HOP-62 human Non-Small Cell Lung tumor cell line is measured as a screen for anti-cancer activity. Cells are grown in 96 well plates and exposed to the test compound for 48 hours. Compounds are tested at a single concentration, which is 10^-5 M for most compounds. The reported endpoint is percent growth (GI% or GIPRCNT), where numbers from 0 - 100% represent growth inhibition, and numbers from -100% - 0 represent cell death. […]
This is part of a sample that, as a whole, favours compounds with a hit. Of some 83,000 tested, about 20% had one in any assay. Calls of active or inactive are those of the source. How the source made its calls: active means growth percent below 10; inactive means the rest.
Answer with one of the outcomes given here: 1 (active), 0 (inactive)

Use the examples below as a reference point.
O=C(c1ccccc1)c1cccc(C(Br)Br)c1	0
CCN(CC)CCCC(C)Nc1c(-c2ccccc2)cnc2cc(Cl)ccc12 (stereo not given)	0
O=[N+]([O-])c1ccc(Sc2nc(Cl)nc(NC3CCCC3)n2)cc1	1

Query: In this assay, the call recorded for O=C1OC(/C=C/c2ccccc2)=NC/1=C/c1ccccc1[N+](=O)[O-] was what?
Response: 0
